Origin of measurements: patent US10227324B2

Biological target: PI3K-β kinase (p110β/p85α) (Homo sapiens, UniProt P42338)
Construct: purchased Millipore 14-603
Sequence (P42338 whole entry): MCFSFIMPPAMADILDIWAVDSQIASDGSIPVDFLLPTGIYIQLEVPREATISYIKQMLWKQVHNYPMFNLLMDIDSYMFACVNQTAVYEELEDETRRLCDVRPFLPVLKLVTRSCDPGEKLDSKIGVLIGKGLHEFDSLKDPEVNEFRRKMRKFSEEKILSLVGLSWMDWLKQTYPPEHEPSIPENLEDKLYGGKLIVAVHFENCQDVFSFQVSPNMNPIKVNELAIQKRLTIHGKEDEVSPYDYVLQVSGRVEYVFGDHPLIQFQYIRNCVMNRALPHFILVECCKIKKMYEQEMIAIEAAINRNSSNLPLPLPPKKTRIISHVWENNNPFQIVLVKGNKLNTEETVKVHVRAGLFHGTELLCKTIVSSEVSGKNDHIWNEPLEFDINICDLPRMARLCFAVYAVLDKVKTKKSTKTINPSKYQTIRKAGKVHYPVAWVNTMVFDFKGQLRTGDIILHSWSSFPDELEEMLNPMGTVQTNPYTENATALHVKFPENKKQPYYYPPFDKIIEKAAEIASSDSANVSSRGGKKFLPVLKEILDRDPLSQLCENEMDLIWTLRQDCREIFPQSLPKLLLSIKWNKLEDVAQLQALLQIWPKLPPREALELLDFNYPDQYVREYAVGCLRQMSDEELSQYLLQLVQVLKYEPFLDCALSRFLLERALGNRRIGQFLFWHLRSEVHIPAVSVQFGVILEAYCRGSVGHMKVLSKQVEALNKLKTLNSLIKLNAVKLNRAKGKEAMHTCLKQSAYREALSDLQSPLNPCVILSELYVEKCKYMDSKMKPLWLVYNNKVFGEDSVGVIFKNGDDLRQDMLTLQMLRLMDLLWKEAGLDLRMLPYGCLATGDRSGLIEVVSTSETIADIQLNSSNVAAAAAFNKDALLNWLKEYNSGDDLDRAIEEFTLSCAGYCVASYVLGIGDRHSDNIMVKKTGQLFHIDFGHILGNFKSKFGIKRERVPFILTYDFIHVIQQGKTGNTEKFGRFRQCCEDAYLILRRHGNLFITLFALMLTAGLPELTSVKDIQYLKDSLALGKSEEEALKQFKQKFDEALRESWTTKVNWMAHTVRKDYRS
Sequence (P27986 whole entry partner): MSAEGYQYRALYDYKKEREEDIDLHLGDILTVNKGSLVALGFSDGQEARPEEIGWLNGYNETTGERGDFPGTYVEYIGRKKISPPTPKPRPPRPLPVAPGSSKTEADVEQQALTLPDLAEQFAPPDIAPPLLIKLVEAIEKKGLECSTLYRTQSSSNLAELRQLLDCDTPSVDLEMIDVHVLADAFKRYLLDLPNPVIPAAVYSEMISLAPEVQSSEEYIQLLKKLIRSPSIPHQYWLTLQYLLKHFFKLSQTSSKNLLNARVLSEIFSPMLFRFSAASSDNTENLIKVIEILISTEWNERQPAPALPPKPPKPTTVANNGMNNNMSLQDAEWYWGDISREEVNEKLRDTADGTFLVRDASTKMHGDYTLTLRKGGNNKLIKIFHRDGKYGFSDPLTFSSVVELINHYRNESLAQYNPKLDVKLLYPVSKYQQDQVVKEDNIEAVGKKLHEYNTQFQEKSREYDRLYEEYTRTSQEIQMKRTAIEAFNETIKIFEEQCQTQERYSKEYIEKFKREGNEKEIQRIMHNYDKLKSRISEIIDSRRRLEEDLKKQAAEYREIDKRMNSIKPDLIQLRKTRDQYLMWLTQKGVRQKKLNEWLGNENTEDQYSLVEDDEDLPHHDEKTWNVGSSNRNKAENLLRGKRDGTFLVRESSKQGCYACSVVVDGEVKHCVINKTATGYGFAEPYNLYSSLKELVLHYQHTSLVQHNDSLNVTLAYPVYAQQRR
Experiment: Determination of PI3K kinase activity (ADP Transcreener, fluorescence polarization)
Format: biochemical
Conditions: Table 1; ATP 10 μM; read-out: PI3K-β/nM (IC50 of inhibitory activity against PI3K kinase)
The label is 1 for IC50 below 500 nM and 0 for IC50 equal to or exceeding 500 nM.

Look over these answered cases.
CC(C)(c1cc(-c2cnc(N)cc2Cl)nc(N2CCOCC2)n1)S(C)(=O)=O [Compound S-38]: 1
CC(C)S(=O)(=O)C1(c2cc(-c3cnc(N)cc3C(F)(F)F)nc(N3CCOCC3)n2)CC1 [Compound S-18]: 0
CN(C1(c2cc(-c3cnc(N)cc3C(F)(F)F)nc(N3CCOCC3)n2)CC1)S(C)(=O)=O [Compound S-14]: 0
CCS(=O)(=O)C1(c2cc(-c3cnc(N)cc3C(F)(F)F)nc(N3CCOC[C@@H]3C)n2)CCC1 [Compound S-23]: 0
CC(C)S(=O)(=O)C(C)(C)c1cc(-c2cnc(N)cc2C(F)(F)F)nc(N2CCOCC2)n1 [Compound S-22]: 0
CS(=O)(=O)C1(c2cc(-c3cnc(N)cc3C(F)(F)F)nc(N3CCOCC3)n2)CCC1 [Compound S-4]: 0

API: the following record is the query input.
Is it true that IC50 reported for C[C@H]1COCCN1c1nc(-c2cnc(N)cc2C(F)(F)F)cc(C2(S(C)(=O)=O)CCC2)n1 [Compound S-9] is less than 500 nM?
1

###

Biological target: PI3K-δ kinase (p110δ/p85α) (Homo sapiens)
Construct: purchased Millipore 14-604M
Assay: Determination of PI3K kinase activity (ADP Transcreener, fluorescence polarization)
Format: biochemical
Conditions: Table 1; ATP 10 μM; read-out: PI3K-δ/nM (IC50 of inhibitory activity against PI3K kinase)
assay.endpoint: IC50
Give the number first and the unit second.

Using known records, supply IC50 for `C[C@H]1COCCN1c1nc(-c2ccc(N)nc2)cc(C2(S(C)(=O)=O)CCC2)n1`
161 nM

Using known records, supply IC50 for `Nc1cc(F)c(-c2cc(C3(S(=O)(=O)C4CC4)CC3)nc(N3CCOCC3)n2)cn1`
209 nM

Using known records, supply IC50 for `CS(=O)(=O)C1(c2cc(-c3cnc(N)cc3Cl)nc(N3CCOCC3)n2)CC1`
84 nM

Using known records, supply IC50 for `CC(C)(c1cc(-c2cnc(N)nc2C(F)(F)F)nc(N2CCOCC2)n1)S(C)(=O)=O`
17 nM

###

Target: PI3K-α kinase (p110α/p85α) (Homo sapiens, UniProt P42336)
Construct: purchased Invitrogen PV4788
Sequence (P42336 whole entry, one chain of several): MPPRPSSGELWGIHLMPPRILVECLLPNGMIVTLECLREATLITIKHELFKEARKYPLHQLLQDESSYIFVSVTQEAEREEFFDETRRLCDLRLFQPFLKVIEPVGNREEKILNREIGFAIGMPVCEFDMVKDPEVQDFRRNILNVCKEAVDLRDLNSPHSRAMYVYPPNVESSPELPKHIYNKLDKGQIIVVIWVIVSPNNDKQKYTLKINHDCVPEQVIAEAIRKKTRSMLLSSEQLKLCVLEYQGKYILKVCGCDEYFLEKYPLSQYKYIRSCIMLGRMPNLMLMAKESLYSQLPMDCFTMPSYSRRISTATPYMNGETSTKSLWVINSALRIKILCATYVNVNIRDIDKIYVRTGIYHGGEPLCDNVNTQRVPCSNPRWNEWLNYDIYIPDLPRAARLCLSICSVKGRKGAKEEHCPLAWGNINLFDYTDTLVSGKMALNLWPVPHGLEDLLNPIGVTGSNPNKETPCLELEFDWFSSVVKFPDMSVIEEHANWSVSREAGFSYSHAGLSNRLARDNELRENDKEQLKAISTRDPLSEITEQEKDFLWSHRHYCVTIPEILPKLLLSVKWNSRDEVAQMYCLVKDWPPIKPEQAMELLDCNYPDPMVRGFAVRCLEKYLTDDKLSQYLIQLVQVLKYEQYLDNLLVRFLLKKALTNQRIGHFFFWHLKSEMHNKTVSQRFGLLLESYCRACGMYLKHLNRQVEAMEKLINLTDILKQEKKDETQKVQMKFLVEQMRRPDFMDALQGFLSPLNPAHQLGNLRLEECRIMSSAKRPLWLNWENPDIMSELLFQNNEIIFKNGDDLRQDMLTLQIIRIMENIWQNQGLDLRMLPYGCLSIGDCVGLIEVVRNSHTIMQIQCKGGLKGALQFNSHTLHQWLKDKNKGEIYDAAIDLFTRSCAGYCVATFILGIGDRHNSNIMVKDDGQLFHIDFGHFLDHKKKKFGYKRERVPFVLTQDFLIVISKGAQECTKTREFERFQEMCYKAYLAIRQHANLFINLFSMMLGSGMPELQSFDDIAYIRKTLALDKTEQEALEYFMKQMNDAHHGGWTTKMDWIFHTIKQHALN
Experiment: Determination of PI3K kinase activity (ADP Transcreener, fluorescence polarization)
Assay type: biochemical
Settings: Table 1; ATP 10 μM; read-out: PI3K-α/nM (IC50 of inhibitory activity against PI3K kinase)
assay.endpoint: IC50
Give the number first and the unit second.

Some entries whose results are on file:
C[C@H]1COCCN1c1nc(-c2cnc(N)nc2)cc(C2(S(C)(=O)=O)CCC2)n1: 12 nM
Nc1cc(C(F)(F)F)c(-c2cc(C3(S(=O)(=O)c4ccccc4)CC3)nc(N3CCOCC3)n2)cn1: 26 nM
Nc1cc(C(F)(F)F)c(-c2cc(C3(S(=O)(=O)c4ccc(F)cc4)CC3)nc(N3CCOCC3)n2)cn1: 37 nM
CC(C)S(=O)(=O)C1(c2cc(-c3cnc(N)cc3C(F)(F)F)nc(N3CCOC[C@@H]3C)n2)CCC1: 67 nM
CS(=O)(=O)C1(c2cc(-c3cnc(N)cc3Cl)nc(N3CCOCC3)n2)CC1: 4 nM

Using known records, supply IC50 for `CCS(=O)(=O)C1(c2cc(-c3cnc(N)cc3F)nc(N3CCOCC3)n2)CC1`
29 nM

###

Target: PI3K-α kinase (p110α/p85α) (Homo sapiens)
Construct: purchased Invitrogen PV4788
Assay: Determination of PI3K kinase activity (ADP Transcreener, fluorescence polarization)
Type: biochemical
Settings: Table 2; ATP 10 μM; read-out: PI3K-α/nM (IC50 of inhibitory activity against PI3K-α kinase)
assay.endpoint: IC50

COC(C)(C)c1cc(-c2cnc(N)cc2Cl)nc(N2CCOCC2)n1: 53 nM

Using known records, supply IC50 for `Nc1cc(C(F)(F)F)c(-c2cc(C3(S(=O)(=O)c4ccc(F)c(F)c4)CC3)nc(N3CCOCC3)n2)cn1`
62 nM

Using known records, supply IC50 for `C[C@@H]1COCCN1c1nc(-c2cnc(N)cc2C(F)(F)F)cc(C(C)(C)O)n1`
18 nM

###

Entries and their IC50 values follow.
Biological target: PI3K-δ kinase (p110δ/p85α) (Homo sapiens)
Construct: purchased Millipore 14-604M
Test: Determination of PI3K kinase activity (ADP Transcreener, fluorescence polarization)
Assay type: biochemical
Settings: Table 1; ATP 10 μM; read-out: PI3K-δ/nM (IC50 of inhibitory activity against PI3K kinase)
Give the value, in units of nM, as a plain number.

CC(C)(c1cc(-c2cnc(N)cc2F)nc(N2CCOCC2)n1)S(C)(=O)=O: 178

# assay system PI3K-δ kinase (p110δ/p85α) (Homo sapiens): give IC50 of CS(=O)(=O)C1(c2cc(N3CCOCC3)nc(-c3cnc(N)cc3C(F)(F)F)n2)CC1 [reference compound]
2580

# assay system PI3K-δ kinase (p110δ/p85α) (Homo sapiens): give IC50 of `CC(C)S(=O)(=O)C1(c2cc(-c3cnc(N)cc3C(F)(F)F)nc(N3CCOCC3)n2)CCC1`
493

# assay system PI3K-δ kinase (p110δ/p85α) (Homo sapiens): give IC50 of `CC(C)S(=O)(=O)C1(c2cc(-c3cnc(N)cc3C(F)(F)F)nc(N3CCOC[C@@H]3C)n2)CCC1`
226

###

Entries and their IC50 values follow.
Biological target: PI3K-α kinase (p110α/p85α) (Homo sapiens, UniProt P42336)
Construct: purchased Invitrogen PV4788
Test: Determination of PI3K kinase activity (ADP Transcreener, fluorescence polarization)
Format: biochemical
Conditions: Table 2; ATP 10 μM; read-out: PI3K-α/nM (IC50 of inhibitory activity against PI3K-α kinase)
Give the value, in units of nM, as a plain number.

CC(C)(O)c1cc(-c2cnc(N)cc2C(F)(F)F)nc(N2CCOCC2)n1 [Compound S-50]: 39

Using known records, supply IC50 for CS(=O)(=O)C1(c2cc(-c3ccc(N)nc3)nc(N3CCOCC3)n2)CC1 [Compound S-40]
92

Using known records, supply IC50 for C[C@H]1COCCN1c1nc(-c2cnc(N)cc2Cl)cc(C(C)(C)O)n1 [Compound S-73]
14

Using known records, supply IC50 for Nc1cc(Cl)c(-c2cc(C3(S(=O)(=O)C4CC4)CC3)nc(N3CCOCC3)n2)cn1 [Compound S-87]
14

###

Test: Metabolism stability assay in liver microsomes
Assay type: in vitro ADME, mouse
Details: liver microsomal metabolism in mice
Please use Satisfied whenever Clearance ratio (mL/min/kg) mouse is not below 100 mL/min/kg, and Not satisfied whenever it is.

Look over these answered cases.
Nc1cc(C(F)(F)F)c(-c2cc(C3(S(=O)(=O)c4ccc(F)cc4)CC3)nc(N3CCOCC3)n2)cn1: Satisfied
CC(C)(c1cc(-c2cnc(N)nc2C(F)(F)F)nc(N2CCOCC2)n1)S(C)(=O)=O: Not satisfied
Nc1cc(C(F)(F)F)c(-c2cc(C3(S(=O)(=O)c4ccccc4)CCC3)nc(N3CCOCC3)n2)cn1: Satisfied
CC(C)(c1cc(-c2cnc(N)cc2Cl)nc(N2CCOCC2)n1)S(C)(=O)=O: Satisfied
CS(=O)(=O)C1(c2cc(-c3cnc(N)cc3F)nc(N3CCOCC3)n2)CC1: Not satisfied

Confirm if Clearance ratio (mL/min/kg) mouse reported for the molecule `CS(=O)(=O)C1(c2cc(-c3cnc(N)cc3C(F)(F)F)nc(N3CCOCC3)n2)CCC1` is 100 mL/min/kg or above.
Satisfied

Confirm if Clearance ratio (mL/min/kg) mouse reported for the molecule `CC(C)(c1cc(-c2cnc(N)cc2C(F)(F)F)nc(N2CCOCC2)n1)S(=O)(=O)c1ccccc1` is 100 mL/min/kg or above.
Satisfied

###

Molecular target: PI3K-δ kinase (p110δ/p85α) (Homo sapiens, UniProt O00329)
Construct: purchased Millipore 14-604M
Sequence (O00329 whole entry, one chain of several): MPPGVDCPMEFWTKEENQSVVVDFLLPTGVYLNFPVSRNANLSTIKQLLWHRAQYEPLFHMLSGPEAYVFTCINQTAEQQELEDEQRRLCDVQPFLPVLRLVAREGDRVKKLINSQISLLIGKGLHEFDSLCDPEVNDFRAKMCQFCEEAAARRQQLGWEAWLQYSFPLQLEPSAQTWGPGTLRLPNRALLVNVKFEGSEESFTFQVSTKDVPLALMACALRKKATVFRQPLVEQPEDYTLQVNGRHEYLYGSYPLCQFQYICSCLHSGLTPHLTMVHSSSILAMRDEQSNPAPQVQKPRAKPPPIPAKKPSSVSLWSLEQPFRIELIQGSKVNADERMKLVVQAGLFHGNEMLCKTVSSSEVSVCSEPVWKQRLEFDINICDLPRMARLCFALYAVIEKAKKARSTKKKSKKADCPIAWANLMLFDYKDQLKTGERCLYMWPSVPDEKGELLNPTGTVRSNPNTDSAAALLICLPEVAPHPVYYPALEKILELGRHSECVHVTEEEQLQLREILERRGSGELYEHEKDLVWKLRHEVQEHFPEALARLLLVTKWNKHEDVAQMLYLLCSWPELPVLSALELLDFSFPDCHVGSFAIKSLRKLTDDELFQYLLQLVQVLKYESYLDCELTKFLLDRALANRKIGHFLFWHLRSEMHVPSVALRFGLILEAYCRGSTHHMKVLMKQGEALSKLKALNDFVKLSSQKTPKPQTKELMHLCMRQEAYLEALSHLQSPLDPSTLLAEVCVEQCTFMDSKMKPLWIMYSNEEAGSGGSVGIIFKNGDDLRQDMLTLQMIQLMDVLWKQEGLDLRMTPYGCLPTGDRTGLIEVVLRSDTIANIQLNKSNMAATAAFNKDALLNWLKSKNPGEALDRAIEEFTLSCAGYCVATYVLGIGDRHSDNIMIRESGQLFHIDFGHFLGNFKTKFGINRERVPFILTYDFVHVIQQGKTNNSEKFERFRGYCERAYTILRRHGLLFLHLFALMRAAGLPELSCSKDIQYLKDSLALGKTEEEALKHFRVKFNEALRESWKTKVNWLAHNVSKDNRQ
Test: Determination of PI3K kinase activity (ADP Transcreener, fluorescence polarization)
Format: biochemical
Settings: Table 1; ATP 10 μM; read-out: PI3K-δ/nM (IC50 of inhibitory activity against PI3K kinase)
assay.endpoint: IC50 (nM)
Give the value, in units of nM, as a plain number.

CC(C)(O)c1cc(-c2cnc(N)cc2Cl)nc(N2CCOCC2)n1: 158

Using known records, supply IC50 for `CS(=O)(=O)C1(c2cc(-c3cnc(N)cc3C(F)(F)F)nc(N3CCOCC3)n2)CCCC1`
367

Using known records, supply IC50 for `CS(=O)(=O)C1(c2cc(-c3cnc(N)nc3C(F)(F)F)nc(N3CCOCC3)n2)CC1`
13

Using known records, supply IC50 for `CCS(=O)(=O)C(C)(C)c1cc(-c2cnc(N)cc2C(F)(F)F)nc(N2CCOCC2)n1`
612
